test: Solubility in 5% BSA in saline; format: physicochemical; details: 5% bovine serum albumin in saline, plasma or biological fluid, thermodynamic from solid
Reported metric: solubility at 5 min (µg/mL)
Supply the numeric figure in µg/mL, leaving out any unit text.

Prompt: Need solubility at 5 min of CN1/C(=C/C2=CC3=C/C(=C/c4sc5ccccc5[n+]4C)CCC3CC2)Sc2ccccc21 (stereo not shown) [ALS04] , thanks.
Completion: 2530

All figures here come from paper PMC11912748.
